Form field: IC50 (one value per entry).
biological target: recombinant human 15-PGDH (Homo sapiens); construct: purchased R&D Systems; assay: 15-PGDH enzyme inhibition test; assay type: biochemical; settings: 4 nM recombinant human 15-PGDH, 30 μM PGE2, 1 mM NAD+, 60 minutes after starting the reaction; read-out: IC50 Value
Sequence (P15428 whole entry): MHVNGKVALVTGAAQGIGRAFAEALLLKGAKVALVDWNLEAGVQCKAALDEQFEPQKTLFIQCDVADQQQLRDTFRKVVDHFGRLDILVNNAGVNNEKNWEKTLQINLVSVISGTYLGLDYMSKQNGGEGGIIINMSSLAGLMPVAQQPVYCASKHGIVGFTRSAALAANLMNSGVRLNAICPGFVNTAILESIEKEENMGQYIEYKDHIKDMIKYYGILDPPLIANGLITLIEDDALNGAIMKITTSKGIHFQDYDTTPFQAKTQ

1) Cn1nc2cc(N3CCOc4cc(C(=O)N5CCCC5(C)C)cnc43)ccn2c1=O [Example 8-173] | 10 to 100 nM
2) COCCn1nc2cc(N3CCCc4cc(C(=O)N5CCC(F)(F)CC5)cnc43)ccn2c1=O [Example 1-78] | < 10 nM
3) CCn1nc2cc(N3CCOc4cc(C(=O)N5CCCC5)cnc43)ccn2c1=O [Example 8-19] | < 10 nM
4) CC1CCN(C(=O)c2cnc3c(c2)OCCN3c2ccc3c(c2)CN(C)C3=O)CC1 [Example 8-194] | < 10 nM
5) O=C(c1cnc2c(c1)CCCN2c1ccn2c(=O)[nH]nc2c1)N1CCC[C@H](CF)C1 [Example 1-145] | < 10 nM
6) O=C(O)c1ccc(N2CCS(=O)(=O)c3cc(C(=O)N4CCCCC4)ccc32)cc1 [Example 2-17] | 10 to 100 nM
7) CCN1Cc2cc(N3CCOc4cc(C(=O)N5CCCCC5)cnc43)ccc2C1=O [Example 8-18] | < 10 nM

Please examine the following record next.
Query :: Answer with the recorded IC50 of O=C(c1cnc2c(c1)OCCN2c1ccc(-c2nnn[nH]2)cc1)N1CCCCC1 [Example 14-10] only.
Result :: < 10 nM

====

Form field: IC50 (one value per entry).
target: recombinant human 15-PGDH (Homo sapiens); construct: purchased R&D Systems; assay: 15-PGDH enzyme inhibition test; type: biochemical; details: 4 nM recombinant human 15-PGDH, 30 μM PGE2, 1 mM NAD+, 60 minutes after starting the reaction; read-out: IC50 Value

Previously resolved entries follow.
1. Cn1cnc2cc(N3CCOc4cc(C(=O)N5CCC(F)(F)CC5)ccc43)ccc2c1=O | < 10 nM
2. CCn1nc2cc(N3CCCc4cc(C(=O)N5CCc6ccccc6C5)cnc43)ccn2c1=O | < 10 nM

Query :: Answer with the recorded IC50 of CN1Cc2cc(N3CCOc4cc(C(=O)N5CCC(F)(F)CC5)ccc43)ccc2C1=O only.
Result :: < 10 nM

Query :: Answer with the recorded IC50 of O=C(c1cnc2c(c1)OCCN2c1ccc2cnccc2c1)N1CCCCC1 only.
Result :: < 10 nM

Query :: Answer with the recorded IC50 of O=C(c1cnc2c(c1)OCCN2c1ccn2nnnc2c1)N1CCCCC1 only.
Result :: < 10 nM

Query :: Answer with the recorded IC50 of O=C(O)c1ccc(N2CCOc3cc(C(=O)N4CCC[C@H](F)C4)cnc32)cc1 only.
Result :: < 10 nM

Query :: Answer with the recorded IC50 of Cn1nc2cc(N3CCCc4cc(C(=O)N5Cc6ccccc6C5)cnc43)ccn2c1=O only.
Result :: < 10 nM

Query :: Answer with the recorded IC50 of C[C@H]1CCCN(C(=O)c2cnc3c(c2)OCCN3c2ccn3c(=O)[nH]nc3c2)C1 only.
Result :: < 10 nM

Query :: Answer with the recorded IC50 of Cn1nc2cc(N3CCOc4cc(C(=O)N5CC6CC6C5)cnc43)ccn2c1=O (stereo not shown) only.
Result :: < 10 nM

Query :: Answer with the recorded IC50 of CCN1Cc2cc(N3CCCc4cc(C(=O)N5CCCC[C@H]5C)cnc43)ccc2C1=O only.
Result :: < 10 nM

Query :: Answer with the recorded IC50 of Cc1nccc(N2CCOc3cc(C(=O)N4CCC(F)(F)CC4)ccc32)n1 only.
Result :: 10 to 100 nM

Query :: Answer with the recorded IC50 of Cn1ccc2ccc(N3CCOc4cc(C(=O)N5CCCCC5)cnc43)cc21 only.
Result :: 10 to 100 nM

Query :: Answer with the recorded IC50 of O=C(c1cnc2c(c1)OCCN2c1cccnc1)N1CCCCC1 only.
Result :: 10 to 100 nM

Query :: Answer with the recorded IC50 of CN1Cc2cc(N3CCOc4cc(C(=O)N5CCCCC5)cnc43)ccc2C1=O only.
Result :: < 10 nM

Query :: Answer with the recorded IC50 of Cn1nc2cc(N3CCOc4cc(C(=O)N5CCC[C@H](O)C5)cnc43)ccn2c1=O only.
Result :: < 10 nM

Query :: Answer with the recorded IC50 of COCn1nc2cc(N3CCOc4cc(C(=O)N5CCCCC5)cnc43)ccn2c1=O only.
Result :: < 10 nM

Query :: Answer with the recorded IC50 of O=C(O)c1cccc(N2CCOc3cc(C(=O)N4CCCCC4)cnc32)c1 only.
Result :: 10 to 100 nM

Query :: Answer with the recorded IC50 of O=C(c1cnc2c(c1)CCCN2c1ccc2c(=O)[nH]cnc2c1)N1CCC(F)(F)CC1 only.
Result :: < 10 nM

Query :: Answer with the recorded IC50 of CO[C@@H]1CCCN(C(=O)c2cnc3c(c2)OCCN3c2ccn3c(=O)n(C)nc3c2)C1 only.
Result :: < 10 nM
